Quick reference: CRE-luc reporter, HEK293T cells with the receptor: EC50 of the listed items.
# Target or system: medaka GCRP receptor (medaka)
Value kind: CRE-luc reporter, HEK293T cells with the receptor: EC50 (nM)

- Binder: "HSEGTFTSDFTRYLDKMKAKDFVHWLINT [Chicken GCRP]"
  Reported: 33.7
- Binder: "HSEGTFSNDYSKYLEDRKAQDFVRWLMNN [Medaka GCG1]"
  Reported: 108
- Binder: "HSEGTFSSDLTRYLDKMKAKDFVQWLMN [Xenopus GCRP]"
  Reported: 30.6
- Binder: "HTDGMFTSDLTNYLDKMKAKNFVEWLAAIKQQE [Medaka GCRP]"
  Reported: 6.84

Values were extracted from paper PMC3679108.
